Experiment: Cytotoxicity against human ME180 cells after 72 hrs by MTT assay
Format: functional, cell-based
Conditions: ME-180, 72 h
Documented pIC50 across a set of molecules
API: returns pIC50 as number; meaning -log10 of concentration in mol/L.

Entry under review: `COc1ccc(C(=O)c2cc(OC)c(OC)c(OC)c2)cc1NC(=O)/C=C/c1ccc(F)c(F)c1` . Reported pIC50? 5.05

# lookup: pIC50 of `COc1ccc(C(=O)c2cc(OC)c(OC)c(OC)c2)cc1NC(=O)/C=C/c1ccc(OC)c(OC)c1` 5.05

Could you share which pIC50 value was measured for `COc1cc(C(=O)c2cc(OC)c(OC)c(OC)c2)cc(NC(=O)/C=C/c2cc(OC)c(OC)c(OC)c2)c1OC` ? 5.41

I'd like to know its pIC50. The molecule in question is `COc1ccc(C(=O)c2cc(OC)c(OC)c(OC)c2)cc1N` 7.10

Request the reported pIC50 associated with `COc1cc(/C=C/C(=O)Nc2cc(C(=O)c3cc(OC)c(OC)c(OC)c3)ccc2OC)ccc1F` 4.81

Need pIC50 of `COc1ccc(C(=O)c2cc(OC)c(OC)c(OC)c2)cc1NC(=O)/C=C/c1ccc(C(F)(F)F)cc1` , thanks. 6.10

Which pIC50 value is on record for `COc1cccc(/C=C/C(=O)Nc2cc(C(=O)c3cc(OC)c(OC)c(OC)c3)ccc2OC)c1` ? 5.37

Please report the recorded pIC50 for `COc1cc(C(=O)c2cc(OC)c(OC)c(OC)c2)cc(NC(=O)/C=C/c2ccc(C(F)(F)F)cc2)c1OC` . 5.44

Requested field: pIC50. Item: `COc1ccc(/C=C/C(=O)Nc2cc(C(=O)c3cc(OC)c(OC)c(OC)c3)cc(OC)c2OC)cc1OC` 5.17

Could you tell me which pIC50 is on file for `C#CCOc1cccc(/C=C/C(=O)Nc2cc(C(=O)c3cc(OC)c(OC)c(OC)c3)ccc2OC)c1` ? 4.82

Item under review: `COc1cc(C(=O)c2cc(OC)c(OC)c(OC)c2)cc(NC(=O)/C=C/c2ccc(F)cc2)c1OC` . Reported pIC50? 6.00

pIC50 lookup needed for `COc1cc(C(=O)c2cc(OC)c(OC)c(OC)c2)cc(NC(=O)/C=C/c2cc(F)c(F)c(F)c2)c1OC` , thanks. 5.15

I am curious: what pIC50 value has been reported for `COc1ccc(C(=O)c2cc(OC)c(OC)c(OC)c2)cc1NC(=O)/C=C/c1cccc(OC(F)(F)F)c1` ? 5.04

Consider the molecule `COc1cccc(/C=C/C(=O)Nc2cc(OC)c(OC)c(OC)c2)c1` and give its measured pIC50. 4.76

Requested read-out: pIC50. Entry: `COc1cc(C(=O)c2cc(OC)c(OC)c(OC)c2)cc(N)c1OC` 4.91

Looking for the measured pIC50 of `COc1ccc(C(=O)c2cc(OC)c(OC)c(OC)c2)cc1NC(=O)/C=C/c1ccc(F)cc1` , can you help? 6.52

Item under review: `COc1cccc(/C=C/C(=O)Nc2cc(C(=O)c3cc(OC)c(OC)c(OC)c3)cc(OC)c2OC)c1` . Reported pIC50? 5.07

Which pIC50 reading was recorded for the molecule `COc1ccc(/C=C/C(=O)Nc2cc(C(=O)c3cc(OC)c(OC)c(OC)c3)cc(OC)c2OC)cc1N` ? 4.86

Would you mind telling me what pIC50 value was observed for `COc1ccc(C(=O)c2cc(OC)c(OC)c(OC)c2)cc1NC(=O)/C=C/c1ccc(N)cc1` ? 4.80

Entry `C#CCOc1cccc(/C=C/C(=O)Nc2cc(C(=O)c3cc(OC)c(OC)c(OC)c3)cc(OC)c2OC)c1` : reported pIC50 = ? 5.08

What does the data say about its pIC50? Entry: `COc1ccc(C(=O)c2cc(OC)c(OC)c(OC)c2)cc1NC(=O)/C=C/c1ccc([N+](=O)[O-])cc1` 5.03

Item under review: `COc1ccc(/C=C/C(=O)Nc2cc(C(=O)c3cc(OC)c(OC)c(OC)c3)cc(OC)c2OC)cc1` . Reported pIC50? 4.90

Dear colleague, I am looking for the recorded pIC50 of the following molecule: `COc1ccc(/C=C/C(=O)Nc2cc(C(=O)c3cc(OC)c(OC)c(OC)c3)ccc2OC)cc1` 4.93

What value of pIC50 has been recorded for this entry: `COc1ccc(C(=O)c2cc(OC)c(OC)c(OC)c2)cc1NC(=O)/C=C/c1cc(OC)c(OC)c(OC)c1` 5.68

Source: ChEMBL document CHEMBL3259744
